tested on: hepatitis C replicon; test: hepatitis C replicon EC50; assay type: cell-based; conditions: Hepatitis C virus; Table 2; hepatitis C replicon; read-out: EC50
pEC50: −log10 of the molar value.
outcomeMeasure: pEC50

Past entries and their recorded results:
CNC(=O)c1cccc(N[C@H]2CCCCC/C=C\[C@@H]3C[C@@]3(C(=O)NS(=O)(=O)C3(C)CC3)NC(=O)[C@@H]3C[C@@H](Oc4cc(-c5nc(C(C)C)cs5)nc5c(C)c(OC)ccc45)CN3C2=O)c1	> 8.00
COc1ccc2c(O[C@@H]3C[C@H]4C(=O)N[C@]5(C(=O)NS(=O)(=O)C6(C)CC6)C[C@H]5/C=C\CCCCC[C@H](Nc5cccc(C(N)=O)c5)C(=O)N4C3)cc(-c3nc(C(C)C)cs3)nc2c1C	> 8.00

# pEC50 (compound: `COc1ccc2c(O[C@@H]3C[C@H]4C(=O)N[C@]5(C(=O)NS(=O)(=O)N6CCCCC6)C[C@H]5/C=C\CCCCC[C@H](Nc5ccccc5)C(=O)N4C3)cc(-c3nc(C(C)C)cs3)nc2c1C` ) is 7.12 to 8.00

# pEC50 (compound: `COc1ccc2c(O[C@@H]3C[C@H]4C(=O)N[C@]5(C(=O)NS(=O)(=O)C6(C)CC6)C[C@H]5/C=C\CCCCC[C@H](Nc5ccc(F)c(F)c5)C(=O)N4C3)cc(-c3nc(C(C)C)cs3)nc2c1C` ) is > 8.00

###

The compounds listed here are annotated with their IC50.
target: NS3/NS4 complexes (Hepatitis C virus genotype 1a); assay: NS3/NS4 inhibition activity (IC50); type: biochemical; settings: Table 3, read-out: IC50
Sequence (P27958 1027-1657): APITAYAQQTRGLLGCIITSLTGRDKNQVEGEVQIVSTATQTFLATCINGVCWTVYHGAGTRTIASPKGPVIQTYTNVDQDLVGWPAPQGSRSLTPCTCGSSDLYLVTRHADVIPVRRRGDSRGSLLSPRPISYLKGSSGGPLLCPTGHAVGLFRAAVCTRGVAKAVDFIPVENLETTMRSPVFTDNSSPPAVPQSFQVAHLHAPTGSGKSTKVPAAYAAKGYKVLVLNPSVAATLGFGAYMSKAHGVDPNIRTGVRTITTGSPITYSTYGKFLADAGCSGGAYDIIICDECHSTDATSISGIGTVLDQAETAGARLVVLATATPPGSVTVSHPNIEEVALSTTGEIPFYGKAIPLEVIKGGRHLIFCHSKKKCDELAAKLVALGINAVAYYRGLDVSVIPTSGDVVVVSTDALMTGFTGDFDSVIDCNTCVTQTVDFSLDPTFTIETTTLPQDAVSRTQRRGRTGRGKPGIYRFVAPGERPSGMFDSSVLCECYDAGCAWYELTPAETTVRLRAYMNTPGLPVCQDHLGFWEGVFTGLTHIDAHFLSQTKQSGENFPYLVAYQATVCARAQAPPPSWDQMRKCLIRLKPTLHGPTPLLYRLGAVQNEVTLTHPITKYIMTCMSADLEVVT
Sequence (P27958 1658-1711): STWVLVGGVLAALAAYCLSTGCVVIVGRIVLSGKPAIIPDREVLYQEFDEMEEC

Past entries and their recorded results:
CC1(S(=O)(=O)NC(=O)[C@@]23C[C@H]2/C=C\CCCCC[C@H](Nc2cc(F)c(F)c(F)c2)C(=O)N2C[C@H](OC(=O)N4Cc5cccc(F)c5C4)C[C@H]2C(=O)N3)CC1	< 10 nM
CC(C)(C)OC(=O)N[C@H]1CCCCC/C=C\[C@@H]2C[C@@]2(C(=O)NOc2ccccc2)NC(=O)[C@@H]2C[C@@H](Oc3nc4ccc(Cl)cc4s3)CN2C1=O	> 100 nM
CC1(S(=O)(=O)NC(=O)[C@@]23C[C@H]2/C=C\CCCCC[C@H](Nc2cccc(OC(F)(F)F)c2)C(=O)N2C[C@H](OC(=O)N4Cc5cccc(F)c5C4)C[C@H]2C(=O)N3)CC1	< 10 nM
CC(C)(C)OC(=O)N[C@H]1CCCCC/C=C\[C@@H]2C[C@@]2(C(=O)NS(=O)(=O)C2(C)CC2)NC(=O)[C@@H]2C[C@@H](Oc3nc4cc(Cl)ccc4o3)CN2C1=O	< 10 nM

Now let's try a different one.
# IC50 (compound: `CC(C)n1c(O[C@@H]2C[C@H]3C(=O)N[C@]4(C(=O)NS(=O)(=O)C5CC5)C[C@H]4/C=C\CCCCC[C@H](NC(=O)OC(C)(C)C)C(=O)N3C2)nc2ccccc21` ) is < 10 nM

###

system: hepatitis C replicon; experiment: hepatitis C replicon EC50; type: cell-based; conditions: Hepatitis C virus; Table 2; hepatitis C replicon; read-out: EC50
pEC50: −log10 of the molar value.
outcomeMeasure: pEC50

CC(C)(C)Cn1c(O[C@@H]2C[C@H]3C(=O)N[C@]4(C(=O)NS(=O)(=O)C5(C)CC5)C[C@H]4/C=C\CCCCC[C@H](Nc4cc(F)cc(C(F)(F)F)c4)C(=O)N3C2)nc2ccccc21	6.30 to 7.12

# pEC50 (compound: `O=C1N[C@]2(C(=O)O)C[C@H]2/C=C\CCCCC[C@H](Nc2ccc(Cl)cc2)C(=O)N2C[C@H](Oc3nc4ccccc4s3)C[C@@H]12` ) is < 6.30

# pEC50 (compound: `O=C1N[C@]2(C(=O)O)C[C@H]2/C=C\CCCCC[C@H](Nc2cc(C(F)(F)F)cc(C(F)(F)F)c2)C(=O)N2C[C@H](Oc3nc4ccccc4s3)C[C@@H]12` ) is < 6.30
